Data provenance is patent US8778974B2.

Molecular target: hα7-wt nAChR-expressing GH4Cl cells (Homo sapiens)
Construct: expressed in transfected cells
Assay: Patch-clamp current recording (whole-cell), potentiation of choline 1 mM response, PAM type
Format: cell-based
Conditions: according to Ex. D.2; "<5" = no top plateau reached at maximal concentration; read-out: Potency (pEC50) (converted)
So basically, if EC50 comes in under 1000 nM it's satisfied, and if it's 1000 nM or more it's not satisfied.

| smiles_entry | category |
| --- | --- |
| C[C@H](O)Cc1nc(Nc2ccc(F)c(C(F)(F)F)c2)nn1-c1cccc(F)c1 | not satisfied |
| CCc1cc(-n2nc(Nc3ccc(F)c(F)c3)nc2C[C@@H](O)CC)ccn1 | satisfied |
| Cc1cc(-n2nc(Nc3cccc(C(F)(F)F)c3)nc2CC(=O)NCC2CC2)cc(C)n1 | satisfied |
| CC[C@H](O)Cc1nc(Nc2cccc(Cl)c2)nn1-c1ccnc(C)c1 | satisfied |
| C[C@H](O)Cc1nc(Nc2ccc(F)c(F)c2)nn1-c1ccc(F)cc1 | not satisfied |
| Cc1cc(-n2nc(Nc3ccc(F)c(F)c3)nc2C[C@H](C)O)cc(C)n1 | not satisfied |
| CNC(=O)Cc1nc(Nc2ccc(F)c(C(F)(F)F)c2)nn1-c1ccnc(C)c1 | not satisfied |
| CNC(=O)CCc1nc(Nc2ccc(F)c(F)c2)nn1-c1ccc(OC(F)(F)F)cc1 | not satisfied |

###

Molecular target: hα7-wt nAChR-expressing GH4Cl cells (Homo sapiens, UniProt P36544)
Construct: expressed in transfected cells
Sequence (P36544 23-502): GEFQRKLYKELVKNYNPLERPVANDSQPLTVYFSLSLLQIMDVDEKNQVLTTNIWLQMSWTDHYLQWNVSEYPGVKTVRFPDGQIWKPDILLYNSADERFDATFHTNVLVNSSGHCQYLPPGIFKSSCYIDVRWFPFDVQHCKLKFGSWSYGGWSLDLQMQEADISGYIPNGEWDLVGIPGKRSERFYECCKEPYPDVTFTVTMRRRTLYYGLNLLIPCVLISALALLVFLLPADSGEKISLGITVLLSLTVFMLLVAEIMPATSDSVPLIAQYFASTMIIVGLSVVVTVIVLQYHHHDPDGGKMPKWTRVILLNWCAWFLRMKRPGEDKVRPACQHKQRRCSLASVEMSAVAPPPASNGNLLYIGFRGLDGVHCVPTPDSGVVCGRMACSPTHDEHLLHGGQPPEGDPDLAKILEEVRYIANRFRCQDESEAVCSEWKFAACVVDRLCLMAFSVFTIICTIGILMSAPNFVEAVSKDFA
Assay: Patch-clamp current recording (whole-cell), potentiation of choline 1 mM response, PAM type
Format: cell-based
Parameters: key: Type 0 compounds minimally enhance the effect size of the current elicited by 1 mM choline.; Type 1 compounds enhance the effect size of the current elicited by 1 mM choline but minimally alter the kinetics of the receptor.; Type 2 compounds enhance the effect size of the current elicited by 1 mM choline while reducing the rate and/or the extent of desensitization.; Type 3 compounds enhance the effect size of the current elicited by 1 mM choline. When tested at higher concentrations up to 10 μM they completely inhibit desensitization, in particular a 1 mM choline application of 250 milliseconds.; Type 4 compounds allow for an initial desensitization of the receptor followed by a re-opening of the receptor during agonist application
Conditions: patch-clamp current recording, 1 mM choline

| molecule | Pam type |
| --- | --- |
| CNC(=O)Cc1nc(Nc2ccc(OC)c(C(F)(F)F)c2)nn1-c1cc(C)nc(C)c1 [E227] | 4 |
| CC[C@H](O)Cc1nc(Nc2cc(Cl)cc(OC)c2)nn1-c1cc(C)nc(C)c1 [E205] | 2 |
| Cc1cc(-n2nc(Nc3ccc(F)c(C(F)(F)F)c3)nc2C(C)CO)ccn1 (stereo not drawn) [E31] | 2 |
| Cc1cc(-n2nc(Nc3cccc(C(F)(F)F)c3)nc2CC(=O)NC2CC2)cc(C)n1 [E171] | 4 |
| CNC(=O)CCc1nc(Nc2cccc(OC(F)(F)F)c2)nn1-c1ccnc(C)c1 [E54] | 2 |
| CCNC(=O)Cc1nc(Nc2cc(F)c(F)c(F)c2)nn1-c1cc(C)nc(C)c1 [E215] | 2 |
| COc1ccc(-n2nc(Nc3ccc(F)c(C(F)(F)F)c3)nc2CCC(=O)N(C)C)cc1 [E62] | 4 |
| Cc1ncccc1-n1nc(Nc2cccc(OC(F)(F)F)c2)nc1CCC(=O)N(C)C [E5] | 4 |
| COc1ccc(-n2nc(Nc3ccc(F)c(F)c3)nc2C[C@H](C)O)cc1 [E21] | 1 |
